biological target: RLuc8.6-535 (Renilla reniformis, UniProt P27652, A123S/A143M/A55T/C124A/D162E/I163L/K136R/M185L/M253L/S130A/S287L); construct: expressed in transfected cells; host or cells: COS-7 (African monkey kidney), lysate; assay type: biochemical; details: COS-7 lysate 10 μL, LAS-4000
Sequence (P27652 whole entry A55T/A123S/C124A/S130A/K136R/A143M/D162E/I163L/M185L/M253L/S287L): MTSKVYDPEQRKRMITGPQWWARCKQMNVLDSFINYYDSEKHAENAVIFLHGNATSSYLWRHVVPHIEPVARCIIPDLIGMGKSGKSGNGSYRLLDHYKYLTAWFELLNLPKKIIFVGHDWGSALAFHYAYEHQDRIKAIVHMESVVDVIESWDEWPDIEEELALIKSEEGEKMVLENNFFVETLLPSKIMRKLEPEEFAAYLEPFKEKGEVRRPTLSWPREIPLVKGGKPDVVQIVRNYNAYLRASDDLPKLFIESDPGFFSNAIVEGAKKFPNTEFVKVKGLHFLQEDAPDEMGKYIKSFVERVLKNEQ
Rule: Fulfilled for Luminescence intensity RLuc8.6-535 ave not less than 2000 RLU/μg/sec/mm2, Not fulfilled for anything less.

- molecule: "O=c1c(Cc2ccccc2)nc2c(Cc3ccccc3)[nH]c(-c3ccccc3)cn1-2 [CTZ 400, coelenterazine 400A]"
  class.assignment: "Not fulfilled"

Ask: Given O=c1c(Cc2ccc(F)cc2)nc2c(Cc3ccccc3)[nH]c(-c3ccc(O)cc3)cn1-2 [CTZ f, coelenterazine f] , state whether its Luminescence intensity RLuc8.6-535 ave is at least 2000 RLU/μg/sec/mm2.
Reply: Fulfilled

Ask: How about O=c1c(Cc2ccc(I)cc2)nc2c(Cc3ccccc3)[nH]c(-c3ccc(O)cc3)cn1-2 [CTZ i, coelenterazine i] ?
Reply: Not fulfilled

Ask: How about Oc1ccc(-c2cn3c(O)c(Cc4ccc(F)cc4)nc3c(CC3CCCC3)n2)cc1 [CTZ fcp, coelenterazine fcp, reference compound] ?
Reply: Not fulfilled

Ask: How about Oc1ccc(Cc2nc3c(CC4CCCC4)nc(-c4ccc(O)cc4)cn3c2O)cc1 [CTZ op, coelenterazine cp, reference compound] ?
Reply: Fulfilled

Ask: How about O=c1c(Cc2ccc3ccccc3c2)nc2c(Cc3ccccc3)[nH]c(-c3ccc(O)cc3)cn1-2 ?
Reply: Fulfilled

Ask: How about O=c1c(Cc2ccccc2)nc2c(Cc3ccccc3)[nH]c(-c3ccc(O)cc3)cn1-2 [CTZ h, coelenterazine h] ?
Reply: Fulfilled
